Experiment: Confirmatory qHTS for Inhibitors of ATXN expression; note: nearly all actives have a fitted effect of over 65% in size; note: potency is the fitted concentration of half-maximal effect
Details: ATXN2-luciferase reporter cells, luminescence, 24 h; series mostly up to 11.5 µM
The campaign covered roughly 2,100 compounds. About 940 (45%) were called active. Inconclusive results (about 48%) are left out. The set was probably picked from earlier hits. Some of the results follow.
METRIC_NAME: Potency

Past entries and their recorded results:
[
  {
    "COMPOUND": "Cc1cccc(OCC(=O)NCC(=O)N/N=C/c2cc(Br)cc(Br)c2O)c1",
    "Potency": "8.91 µM (active)"
  },
  {
    "COMPOUND": "CCCC(=O)NC(c1ccc(OC)c(OC)c1)c1cc(Cl)c2cccnc2c1O (centres undefined)",
    "Potency": "2.51 µM (active)"
  },
  {
    "COMPOUND": "CC(=O)N1c2ccc(S(=O)(=O)N3CCC(C(=O)Nc4cccc(C(F)(F)F)c4)CC3)cc2CC1C (centres undefined)",
    "Potency": "14.1 µM (active)"
  },
  {
    "COMPOUND": "CCOC(=O)c1c(CSc2nc(C)cc(C)c2C#N)n(C)c2cc(Br)c(OC(C)=O)cc12",
    "Potency": "inactive"
  },
  {
    "COMPOUND": "CCOC(=O)C(NS(=O)(=O)c1ccc(C)cc1)(C(F)(F)F)P(=O)(OCC(C)C)OCC(C)C (centres undefined)",
    "Potency": "inactive"
  },
  {
    "COMPOUND": "Cc1ccc2c(c1)C1CN(C)CCC1N2C(=S)NC(=O)c1ccc(Br)cc1 (centres undefined)",
    "Potency": "inactive"
  },
  {
    "COMPOUND": "O=C1CCCC(O)=C1C=NCc1ccccc1",
    "Potency": "inactive"
  },
  {
    "COMPOUND": "O=C(/C=C\\c1ccccc1)NCC(=O)N/N=C/c1ccc(O)cc1O",
    "Potency": "15.8 µM (active)"
  },
  {
    "COMPOUND": "COc1ccc(-c2cc(C3CCN(c4ccc(C(C)=O)cc4[N+](=O)[O-])CC3)[nH]n2)cc1",
    "Potency": "15.8 µM (active)"
  },
  {
    "COMPOUND": "Cc1ccc(C)c(NC(=O)CSc2n[nH]c(-c3ccccn3)n2)c1",
    "Potency": "22.4 µM (active)"
  }
]

Give measured Potency for every item shown.
1. CCC1=C(CC2NCCc3ccccc32)CC2c3cc(OC)c(OC)cc3CCN2C1 (centres undefined)
2. C/C(=N\NC(=O)C(C)n1nc(C)c([N+](=O)[O-])c1C)c1ccccc1O (centres undefined)
3. Cc1c(C(=O)N2c3ccccc3Sc3ccccc32)cccc1[N+](=O)[O-]

Found:
1. 8.91 µM (active)
2. 3.16 µM (active)
3. inactive

Lookup: Data request, read-out Potency, for Cc1ccc2nc(NNC(=O)c3ccc(S(=O)(=O)N4CCc5ccccc5C4)cc3)sc2c1
Found: 2.51 µM (active)

* * *

Please provide measured Potency for the entries that follow.
Test: Confirmatory qHTS for Inhibitors of ATXN expression; note: nearly all actives have a fitted effect of over 65% in size; note: potency is the fitted concentration of half-maximal effect
Settings: ATXN2-luciferase reporter cells, luminescence, 24 h; series mostly up to 11.5 µM
Hit rate of the full screen: of about 2,100 compounds, about 940 (45%) were called active. Another 48% or so got no clear call; they are omitted. So high a share suggests a set chosen from earlier hits. Some of the results follow.

[
  {
    "COMPOUND": "CC(=O)NC(c1cccc([N+](=O)[O-])c1)c1ccc2cccnc2c1O (centres undefined)",
    "METRIC_NAME": "Potency",
    "ENDPOINT_RESULT": "562 nM (active)"
  },
  {
    "COMPOUND": "COc1ccc2[nH]c3c(N4CCC(O)(c5cccc(C(F)(F)F)c5)CC4)ncnc3c2c1",
    "METRIC_NAME": "Potency",
    "ENDPOINT_RESULT": "2820 nM (active)"
  }
]

Let us examine a further case.
Lookup: Data request, read-out Potency, for O=C(/C=C/c1ccco1)Oc1cc(Br)cc(/C=N/NC(=O)c2ccccc2O)c1
Found: 447 nM (active)

* * *

Experiment: Confirmatory qHTS for Inhibitors of ATXN expression; note: nearly all actives have a fitted effect of over 65% in size; note: potency is the fitted concentration of half-maximal effect
Conditions: ATXN2-luciferase reporter cells, luminescence, 24 h; series mostly up to 11.5 µM
Hit rate of the full screen: of about 2,100 compounds, about 940 (45%) were called active. Inconclusive results (about 48%) are left out. The set was probably picked from earlier hits. The list shows a part of the results.
METRIC_NAME: Potency

Past entries and their recorded results:
[
  {
    "SMILES": "O=C(N/N=C(\\Cc1ncc[nH]1)c1ccccc1)c1cccnc1",
    "METRIC_NAME": "Potency",
    "ENDPOINT_RESULT": "3.16 µM (active)"
  },
  {
    "SMILES": "O=C(Cn1nc2ccccc2n1)N/N=C/c1cc([N+](=O)[O-])ccc1O",
    "METRIC_NAME": "Potency",
    "ENDPOINT_RESULT": "3.16 µM (active)"
  },
  {
    "SMILES": "O=C(N/N=C/c1cc([N+](=O)[O-])ccc1O)c1c[nH]c2ccccc12",
    "METRIC_NAME": "Potency",
    "ENDPOINT_RESULT": "17.8 µM (active)"
  },
  {
    "SMILES": "COc1ccccc1NCC(=O)N/N=C/c1c(O)ccc2ccccc12",
    "METRIC_NAME": "Potency",
    "ENDPOINT_RESULT": "3.16 µM (active)"
  }
]

Let us examine a further case.
Lookup: Data request, read-out Potency, for N#C/C(=C\C=C\c1ccccc1[N+](=O)[O-])C(=O)NC1CCCCC1
Found: 17.8 µM (active)

* * *

Assay: Confirmatory qHTS for Inhibitors of ATXN expression; note: nearly all actives have a fitted effect of over 65% in size
Conditions: ATXN2-luciferase reporter cells, luminescence, 24 h; series mostly up to 11.5 µM
Hit rate of the full screen: of about 2,100 compounds, about 940 (45%) were called active. Another 48% or so got no clear call; they are omitted. The call rests on the fitted dose curve; in most records, active means well fitted inhibition curve with a large enough effect; inconclusive means small, poorly fitted or top-dose-only effect; inactive means no such curve, though single readings can be large or run the other way. The set was probably picked from earlier hits. The list shows a part of the results.
Assign a class; possible classes are active, inactive

Lookup: Dear colleague, could you share the recorded outcome for CC(=O)N1CCN(c2ccc(Oc3ccc([N+](=O)[O-])c(C(F)(F)F)c3)cc2)CC1 when you have a moment?
Found: active

* * *

Assay: Confirmatory qHTS for Inhibitors of ATXN expression; note: nearly all actives have a fitted effect of over 65% in size
Settings: ATXN2-luciferase reporter cells, luminescence, 24 h; series mostly up to 11.5 µM
Among all 2,100 compounds or so, about 940 (45%) were called active. About 48% were inconclusive and are not listed. Calls follow the shape of the dose curve; as a rule, active = well fitted inhibition curve with a large enough effect; inconclusive = small, poorly fitted or top-dose-only effect; inactive = no such curve, though single readings can be large or run the other way. So high a share suggests a set chosen from earlier hits. Some of the results follow.
Assign a class; possible classes are yes for active, no for inactive

[
  {
    "COMPOUND": "CSc1cccc(NC(=O)c2ccc(CN3CCc4ccccc4C3)cc2)c1",
    "DISCRETE_LABEL": "yes"
  }
]

Lookup: Dear colleague, could you share the recorded outcome for O=C(N/N=C/c1ccc(O)cc1O)/C(=C/c1ccccc1)CCO when you have a moment?
Found: yes

Lookup: Dear colleague, could you share the recorded outcome for CCCC[C@@H](CNC)NC[C@H](NCCCCC1CCCCC1)C(C)C when you have a moment?
Found: yes

Lookup: Dear colleague, could you share the recorded outcome for O=C(NCc1ccco1)c1ccc(-c2cccc(Cl)c2)o1 when you have a moment?
Found: no

Lookup: Dear colleague, could you share the recorded outcome for OC(c1ccccc1)(c1nc(-c2ccc3ccccc3c2)cs1)C(F)(F)F (stereo unspecified) when you have a moment?
Found: no

* * *

Assay: Confirmatory qHTS for Inhibitors of ATXN expression; note: nearly all actives have a fitted effect of over 65% in size
Conditions: ATXN2-luciferase reporter cells, luminescence, 24 h; series mostly up to 11.5 µM
The campaign covered roughly 2,100 compounds. About 940 (45%) were called active. Inconclusive results (about 48%) are left out. The call rests on the fitted dose curve; in most records, active means well fitted inhibition curve with a large enough effect; inconclusive means small, poorly fitted or top-dose-only effect; inactive means no such curve, though single readings can be large or run the other way. So high a share suggests a set chosen from earlier hits. Some of the results follow.
Assign a class; possible classes are t = active, f = inactive

Answered examples (3):
[
  {
    "COMPOUND": "Cc1nc(-c2ccc(C(F)(F)F)cc2)sc1C(=O)NN",
    "DISCRETE_LABEL": "t"
  },
  {
    "COMPOUND": "CCCC(=O)NC(c1ccco1)c1cc(Cl)c2cccnc2c1O (stereo unspecified)",
    "DISCRETE_LABEL": "t"
  },
  {
    "COMPOUND": "N#Cc1c(N)n(C2OC(CO)C(O)C2O)c2ncnc(N)c12 (stereo unspecified)",
    "DISCRETE_LABEL": "t"
  }
]

Lookup: Dear colleague, could you share the recorded outcome for O=C(N/N=C/c1ccc(O)cc1O)c1ccc(CN2C(=O)c3cccc4cccc2c34)cc1 when you have a moment?
Found: t

Lookup: Dear colleague, could you share the recorded outcome for Cc1ccc(C(C)C)c(OCc2ccc(C(=O)N/N=C/c3ccc(O)cc3O)cc2)c1 when you have a moment?
Found: t
